Entry source: patent US20220332804A1

# Target system: T1, cynomolgus monkey C2 (cynomolgus monkey, UniProt G8F3W0 21-752)
# T1 sequence: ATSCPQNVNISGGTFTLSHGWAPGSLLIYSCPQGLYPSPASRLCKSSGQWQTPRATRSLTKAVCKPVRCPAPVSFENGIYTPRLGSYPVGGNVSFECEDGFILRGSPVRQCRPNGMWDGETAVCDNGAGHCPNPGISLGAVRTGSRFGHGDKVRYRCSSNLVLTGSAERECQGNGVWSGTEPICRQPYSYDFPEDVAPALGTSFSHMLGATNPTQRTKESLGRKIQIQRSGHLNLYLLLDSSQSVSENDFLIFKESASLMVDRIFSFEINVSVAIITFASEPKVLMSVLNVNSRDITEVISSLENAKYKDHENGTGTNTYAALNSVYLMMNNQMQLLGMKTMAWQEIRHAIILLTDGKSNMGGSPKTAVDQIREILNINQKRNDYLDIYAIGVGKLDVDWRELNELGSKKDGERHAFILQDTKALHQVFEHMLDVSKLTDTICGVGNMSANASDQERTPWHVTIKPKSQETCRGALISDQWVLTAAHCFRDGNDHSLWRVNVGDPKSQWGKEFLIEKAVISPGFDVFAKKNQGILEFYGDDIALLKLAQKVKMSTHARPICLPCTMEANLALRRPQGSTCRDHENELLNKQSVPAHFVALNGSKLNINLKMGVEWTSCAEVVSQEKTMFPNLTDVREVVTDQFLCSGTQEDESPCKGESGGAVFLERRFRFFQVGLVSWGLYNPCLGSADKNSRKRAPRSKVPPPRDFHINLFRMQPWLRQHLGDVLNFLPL
# Assay: cell-based or functional assay
Experimental endpoint: IC50, inhibition of cynomolgus classical complement pathway (Wieslab assay) (nM)
Give the quantity in nM, number only.

Prompt: // IC50, inhibition of cynomolgus classical complement pathway (Wieslab assay) lookup, key: RF16-242G (antibody, V domains shown, Germlined version of RF16-242) VH: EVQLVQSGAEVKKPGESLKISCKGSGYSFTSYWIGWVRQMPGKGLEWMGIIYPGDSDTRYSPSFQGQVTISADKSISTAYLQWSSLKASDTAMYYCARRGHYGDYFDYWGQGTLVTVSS VL: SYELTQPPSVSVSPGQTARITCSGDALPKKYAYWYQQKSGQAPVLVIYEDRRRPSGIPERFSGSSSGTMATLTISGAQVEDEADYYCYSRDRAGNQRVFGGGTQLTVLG
Completion: 19.3

Prompt: GET /values?readout=IC50, inhibition of cynomolgus classical complement pathway (Wieslab assay)&item= RF16-214 (antibody, V domains shown) VH: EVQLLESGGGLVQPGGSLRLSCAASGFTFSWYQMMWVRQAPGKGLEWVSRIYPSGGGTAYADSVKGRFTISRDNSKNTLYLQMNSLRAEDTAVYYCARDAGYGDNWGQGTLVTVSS VL: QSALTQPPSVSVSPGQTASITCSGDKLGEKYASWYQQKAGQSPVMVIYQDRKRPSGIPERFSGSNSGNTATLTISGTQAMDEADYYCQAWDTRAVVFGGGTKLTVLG
Completion: 134

Prompt: Fill in: IC50, inhibition of cynomolgus classical complement pathway (Wieslab assay) of RF16-214G (antibody, V domains shown) VH: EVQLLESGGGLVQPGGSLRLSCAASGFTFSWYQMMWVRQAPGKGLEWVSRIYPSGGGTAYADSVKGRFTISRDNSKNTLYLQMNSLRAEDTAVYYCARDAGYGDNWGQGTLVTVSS VL: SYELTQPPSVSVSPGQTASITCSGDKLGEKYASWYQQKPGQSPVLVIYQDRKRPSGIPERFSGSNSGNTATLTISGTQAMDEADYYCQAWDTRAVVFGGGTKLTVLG is ___
Completion: 135

Kindly review the next binder as well.
Prompt: Bench note: what IC50, inhibition of cynomolgus classical complement pathway (Wieslab assay) did RF16-191 (antibody, V domains shown, Human antibody from a phage display library) VH: EVQLLESGGGLVQPGGSLRLSCAASGFTFSKYWMGWVRQATGKGLEWVSSIYSSGGWTYYADSVKGRFTISRDNSKNTLYLQMNSLRAEDTAVYYCARRPRSFSGSYYRAFDIWGQGTMVTVSS VL: DIQMTQSPSSLSASVGDRVTITCRASQSITDYLNWYQQRPGKAPKLLIYAASSLQSGVPSRFSGSGSGTDFTLTISGLQPEDFATYYCQQSYSSSITFGQGTRLDLKR show?
Completion: 11
